# test-details: Cytotoxicity against human THP1 cells assessed as induction of cell death after 24 hrs by propidium iodide staining based flow cytometry
# details: THP-1 cells, read-out: LC50
experimental-endpoint: CC50 at 24 h

Param item = `Ac-RRRRRRRRRKMGISSMVQPKII-NH2` ; retrieve measured CC50 at 24 h.
> 25 µM

* * *

# test-details: Stability assessed as Tritirachium album proteinase K- mediated compound degradation by measuring half life at 100 uM by HPLC method
# Assay type: ADME
# details: parengyodontium album
Bridge positions count the residues as written; N and C are the ends. Square brackets hold non-standard residues; d marks the D form. Peptide text beside a SMILES is read from it. ξ: configuration not given here. ξNle = CCCCC(N)C(=O)O
experimental-endpoint: half-life at 100 µM (min)
Answers are plain numbers, in min.

compound	experimental-endpoint	observed
CCCCC(NC(=O)[C@H](CCCCN)NC(=O)C(CCCC)NC(=O)[C@H](CO)NC(=O)[C@@H](NC(=O)[C@@H]1CCCCNC(=O)CC[C@H](NC(=O)[C@@H](NC(=O)[C@H](CCCCN)NC(=O)[C@@H]2CCCN2C(C)=O)[C@@H](C)CC)C(=O)N[C@@H](CCC(N)=O)C(=O)NC(CO)C(=O)N[C@@H](C(C)C)C(=O)N1)[C@@H](C)CC)C(N)=O (single isomer, unassigned)	half-life at 100 µM	64
CCCCC(NC(=O)[C@H](CCCCN)NC(=O)C(CCCC)NC(=O)[C@H](CO)NC(=O)[C@@H](NC(=O)CNC(=O)[C@@H]1CCCCNC(=O)CC[C@H](NC(=O)[C@H](CCCCN)NC(=O)[C@@H]2CCCN2C(C)=O)C(=O)N[C@@H]([C@@H](C)CC)C(=O)N[C@@H](CCC(N)=O)C(=O)N[C@@H](CO)C(=O)N1)[C@@H](C)CC)C(N)=O (stereo partly drawn) (Ac-PKEIQSKGIS[ξNle]K[ξNle]-NH2; lactam 3-7)	half-life at 100 µM	52

Would you kindly look at the next entry?
Param item = CCCCC(NC(=O)[C@H](CCCCN)NC(=O)C(CCCC)NC(=O)[C@H](CO)NC(=O)[C@@H](NC(=O)CNC(=O)[C@@H](NC(=O)[C@H](CO)NC(=O)[C@H](CCC(N)=O)NC(=O)[C@@H](NC(=O)[C@@H](NC(=O)[C@H](CCCCN)NC(=O)[C@@H]1CCCN1C(C)=O)[C@@H](C)CC)[C@@H](C)CC)C(C)C)[C@@H](C)CC)C(N)=O (stereo partly drawn) ; retrieve measured half-life at 100 µM.
23

* * *

# system-under-test: Trypanothione reductase (Leishmania infantum, UniProt A4HSF7)
# Sequence (A4HSF7 whole entry): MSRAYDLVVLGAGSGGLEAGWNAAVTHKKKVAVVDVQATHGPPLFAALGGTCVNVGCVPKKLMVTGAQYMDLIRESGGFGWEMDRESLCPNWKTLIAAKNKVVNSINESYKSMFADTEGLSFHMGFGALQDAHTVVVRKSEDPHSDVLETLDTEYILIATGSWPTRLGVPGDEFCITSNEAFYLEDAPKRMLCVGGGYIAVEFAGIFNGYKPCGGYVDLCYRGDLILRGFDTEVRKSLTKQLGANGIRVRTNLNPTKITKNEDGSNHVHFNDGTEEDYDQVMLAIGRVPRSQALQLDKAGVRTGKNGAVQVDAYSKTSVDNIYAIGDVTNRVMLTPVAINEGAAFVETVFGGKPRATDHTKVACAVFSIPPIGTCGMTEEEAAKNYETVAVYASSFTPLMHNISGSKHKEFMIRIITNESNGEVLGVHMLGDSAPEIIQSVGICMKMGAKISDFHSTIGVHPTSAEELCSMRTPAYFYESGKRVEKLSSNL
# test-details: Inhibition of recombinant His/FLAG-tagged Leishmania infantum TryR dimerization assessed as dimer disruption after 1 hr by ELISA
Bridge positions count the residues as written; N and C are the ends. Square brackets hold non-standard residues; d marks the D form. Peptide text beside a SMILES is read from it. ξ: configuration not given here. ξNle = CCCCC(N)C(=O)O
experimental-endpoint: IC50 (µM)
Answers are plain numbers, in µM.

compound	system-under-test	IC50 (µM)
CCCCC(NC(=O)[C@@H]1CCCCNC(=O)CC[C@H](NC(=O)[C@@H](NC(=O)[C@H](CO)NC(=O)[C@H](CCC(N)=O)NC(=O)[C@@H](NC(=O)[C@@H](NC(=O)[C@H](CCCCN)NC(=O)[C@@H]2CCCN2C(C)=O)[C@@H](C)CC)[C@@H](C)CC)C(C)C)C(=O)N[C@@H]([C@@H](C)CC)C(=O)N[C@@H](CO)C(=O)NC(CCCC)C(=O)N1)C(N)=O (stereo not given in full)	Trypanothione reductase (Leishmania infantum, UniProt A4HSF7)	12.1
CCCCC(NC(=O)[C@H](CCCCN)NC(=O)C(CCCC)NC(=O)[C@H](CO)NC(=O)[C@@H](NC(=O)CNC(=O)[C@@H]1CCCCNC(=O)CC[C@H](NC(=O)[C@H](CCCCN)NC(=O)[C@@H]2CCCN2C(C)=O)C(=O)N[C@@H]([C@@H](C)CC)C(=O)N[C@@H](CCC(N)=O)C(=O)N[C@@H](CO)C(=O)N1)[C@@H](C)CC)C(N)=O (stereo not given in full) (Ac-PKEIQSKGIS[ξNle]K[ξNle]-NH2; lactam 3-7)	Trypanothione reductase (Leishmania infantum, UniProt A4HSF7)	9.9

Would you kindly look at the next entry?
Param item = `CC[C@H](C)[C@H](NC(=O)CNC(=O)[C@@H](NC(=O)[C@H](CO)NC(=O)[C@H](CCC(N)=O)NC(=O)[C@@H](NC(=O)[C@@H](NC(=O)[C@H](CCCCN)NC(=O)[C@@H]1CCCN1C(C)=O)[C@@H](C)CC)[C@@H](C)CC)C(C)C)C(N)=O` ; retrieve measured IC50.
20.8
